Every entry's value here was drawn from PubChem BioAssay (NCI).

# Test system: ACHN renal
# run_description: NCI tumour cell line growth inhibition, 48 h
# GI50 listing for each entry below

1. COC(=O)/C(=C\c1c(-c2ccccc2)[nH]c2ccccc12)S(C)(=O)=O
9.18 µM
2. Nc1cc2nc3ccccc3oc-2cc1=O
12.4 µM
3. CCN(Cc1cccc(F)c1F)c1ccc(CO)c(Cl)c1
17.8 µM
4. Cc1cc(S(N)(=O)=O)c(S/C(=N\Nc2ccc([N+](=O)[O-])cc2)c2ccc3ccccc3c2)cc1Cl
17 µM

Checklist item: GI50 tested on ACHN renal, entry CC(=O)/C(=C\c1c(-c2ccccc2)[nH]c2ccccc12)S(=O)(=O)c1ccccc1 , value?
2.06 µM

Look up GI50 with ACHN renal for this molecule: O=Nc1c(O)c2ccccc2c2ccccc12
1.02 µM

Requested read-out GI50, target or system ACHN renal, entry CC(C)(C)OC(=O)NCCCCCCCCCCn1c2c(c3ccccc3c1=O)C(=O)c1ccccc1-2
18.5 µM

Give the reported GI50 for O=S(=O)(NCCO)c1cc[c]([Sb](=[O])([OH])[OH])cc1 (system: ACHN renal).
> 100 µM
